test system: Plasmodium falciparum; experiment: NOVARTIS: Inhibition of Plasmodium falciparum 3D7 (drug-susceptible) proliferation in erythrocyte-based infection assay; assay type: functional, organism-based; settings: Plasmodium falciparum, 3D7
pEC50: −log10 of the molar value.

[
  {
    "compound": "O=C(C1CCC(Cn2c(=S)[nH]c3ccccc3c2=O)CC1)N1CC=C(c2ccccc2)CC1 (stereo not drawn)",
    "pEC50": "< 6.02"
  },
  {
    "compound": "O=C(Cn1ccc(=NCc2ccccc2)cc1)c1cccc(Br)c1",
    "pEC50": "< 5.86"
  },
  {
    "compound": "CC(=O)N1CCc2cc(NC3CCN(Cc4ccccc4)CC3)ccc21",
    "pEC50": "< 5.90"
  }
]
